Reported inhibition is given for each of the following compounds.
- tested-system: Huntingtin (Homo sapiens) (UniProt P42858)
- Sequence (P42858 whole entry, looked up, stated change not applied): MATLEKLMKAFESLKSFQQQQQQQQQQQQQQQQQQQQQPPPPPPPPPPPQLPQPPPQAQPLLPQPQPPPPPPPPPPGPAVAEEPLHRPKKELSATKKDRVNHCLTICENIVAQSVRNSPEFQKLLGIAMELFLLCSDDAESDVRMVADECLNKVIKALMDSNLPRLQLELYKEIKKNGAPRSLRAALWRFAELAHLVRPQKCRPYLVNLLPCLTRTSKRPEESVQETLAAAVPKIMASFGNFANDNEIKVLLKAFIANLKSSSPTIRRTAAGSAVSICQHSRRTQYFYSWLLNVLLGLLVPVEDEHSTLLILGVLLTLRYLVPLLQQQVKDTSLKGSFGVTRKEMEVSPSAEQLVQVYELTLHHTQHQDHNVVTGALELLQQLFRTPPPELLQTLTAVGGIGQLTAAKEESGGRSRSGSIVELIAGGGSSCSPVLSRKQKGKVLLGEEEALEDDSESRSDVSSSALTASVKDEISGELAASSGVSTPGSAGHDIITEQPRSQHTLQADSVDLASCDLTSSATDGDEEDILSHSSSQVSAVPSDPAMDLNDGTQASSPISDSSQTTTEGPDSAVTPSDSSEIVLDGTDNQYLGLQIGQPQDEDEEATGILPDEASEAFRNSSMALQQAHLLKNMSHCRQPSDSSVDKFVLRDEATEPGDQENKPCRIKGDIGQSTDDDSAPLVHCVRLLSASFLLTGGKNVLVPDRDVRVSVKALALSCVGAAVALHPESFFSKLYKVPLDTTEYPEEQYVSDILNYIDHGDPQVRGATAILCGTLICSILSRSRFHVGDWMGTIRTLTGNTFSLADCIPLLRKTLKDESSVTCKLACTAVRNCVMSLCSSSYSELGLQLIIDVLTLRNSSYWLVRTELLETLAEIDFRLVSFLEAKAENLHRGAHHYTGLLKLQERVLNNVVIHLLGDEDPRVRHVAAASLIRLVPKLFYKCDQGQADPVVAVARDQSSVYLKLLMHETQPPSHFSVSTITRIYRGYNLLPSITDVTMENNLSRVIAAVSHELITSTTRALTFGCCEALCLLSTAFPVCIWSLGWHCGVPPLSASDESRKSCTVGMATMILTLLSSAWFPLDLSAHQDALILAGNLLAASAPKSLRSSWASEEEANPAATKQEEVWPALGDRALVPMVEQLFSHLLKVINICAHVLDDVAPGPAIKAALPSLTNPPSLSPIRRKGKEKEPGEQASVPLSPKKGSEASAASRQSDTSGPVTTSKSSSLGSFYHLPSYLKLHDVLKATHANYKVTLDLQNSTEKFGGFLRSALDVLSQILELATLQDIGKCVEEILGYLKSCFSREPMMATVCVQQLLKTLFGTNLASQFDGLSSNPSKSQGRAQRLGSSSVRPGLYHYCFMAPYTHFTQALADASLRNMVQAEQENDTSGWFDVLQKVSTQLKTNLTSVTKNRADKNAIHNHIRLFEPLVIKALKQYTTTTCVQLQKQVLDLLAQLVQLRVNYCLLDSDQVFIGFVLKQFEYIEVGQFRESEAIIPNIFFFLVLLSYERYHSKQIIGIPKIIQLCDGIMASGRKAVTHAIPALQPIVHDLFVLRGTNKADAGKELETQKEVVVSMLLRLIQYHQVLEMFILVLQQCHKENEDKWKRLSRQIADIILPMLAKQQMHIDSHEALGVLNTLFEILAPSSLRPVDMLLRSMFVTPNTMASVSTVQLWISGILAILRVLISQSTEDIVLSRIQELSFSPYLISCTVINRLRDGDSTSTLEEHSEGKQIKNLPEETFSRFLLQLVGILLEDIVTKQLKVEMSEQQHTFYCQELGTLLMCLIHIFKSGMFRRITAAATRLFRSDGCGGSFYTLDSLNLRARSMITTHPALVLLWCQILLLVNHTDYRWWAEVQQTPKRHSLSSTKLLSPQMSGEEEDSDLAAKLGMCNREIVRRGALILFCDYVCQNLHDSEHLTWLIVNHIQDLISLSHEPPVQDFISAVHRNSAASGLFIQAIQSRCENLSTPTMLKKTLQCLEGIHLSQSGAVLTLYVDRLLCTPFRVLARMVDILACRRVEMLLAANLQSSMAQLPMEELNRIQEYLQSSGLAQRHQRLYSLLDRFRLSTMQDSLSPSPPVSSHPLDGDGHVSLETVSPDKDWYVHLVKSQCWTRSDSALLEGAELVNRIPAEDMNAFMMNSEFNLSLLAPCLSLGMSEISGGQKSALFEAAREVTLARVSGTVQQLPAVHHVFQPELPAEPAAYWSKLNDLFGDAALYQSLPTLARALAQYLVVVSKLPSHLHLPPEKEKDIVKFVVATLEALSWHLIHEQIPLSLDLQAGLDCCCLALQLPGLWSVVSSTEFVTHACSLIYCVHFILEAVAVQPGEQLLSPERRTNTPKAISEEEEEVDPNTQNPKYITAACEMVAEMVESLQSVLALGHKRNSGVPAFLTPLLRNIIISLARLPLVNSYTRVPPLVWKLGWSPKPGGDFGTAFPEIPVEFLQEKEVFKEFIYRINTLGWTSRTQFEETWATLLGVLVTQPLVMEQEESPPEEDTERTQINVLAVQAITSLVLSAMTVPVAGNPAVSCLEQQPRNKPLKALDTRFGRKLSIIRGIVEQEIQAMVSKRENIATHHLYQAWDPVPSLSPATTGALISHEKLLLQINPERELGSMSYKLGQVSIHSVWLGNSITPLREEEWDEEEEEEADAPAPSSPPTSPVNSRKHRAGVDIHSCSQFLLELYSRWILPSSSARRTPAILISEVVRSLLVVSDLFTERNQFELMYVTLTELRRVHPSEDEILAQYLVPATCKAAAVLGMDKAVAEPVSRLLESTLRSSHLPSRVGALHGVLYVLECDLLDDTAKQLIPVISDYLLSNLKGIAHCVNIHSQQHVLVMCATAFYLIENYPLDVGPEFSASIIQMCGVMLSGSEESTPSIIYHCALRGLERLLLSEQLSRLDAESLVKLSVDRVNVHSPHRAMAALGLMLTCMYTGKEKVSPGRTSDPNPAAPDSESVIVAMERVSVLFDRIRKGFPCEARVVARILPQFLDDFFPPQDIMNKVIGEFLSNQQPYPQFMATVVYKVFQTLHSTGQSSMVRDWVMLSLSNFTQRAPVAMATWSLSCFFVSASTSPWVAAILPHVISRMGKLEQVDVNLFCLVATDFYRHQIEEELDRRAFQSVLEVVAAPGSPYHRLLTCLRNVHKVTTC
- measurement-notes: mutant huntingtin-calmodulin interaction inhibitors – biochemical, AlphaScreen, primary screen (AID 1671202);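 also: 0% = both proteins with DMSO and 100% = one protein alone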
- conditions-used: AlphaScreen His-mHTT/GST-CaM binding, luminescence; at 15 µM, stronger effect = higher value
In all, about 190,000 compounds went through this assay and about 6,900 (3.6%) were called active. The entries come from a sample that favours actives as a whole.
reported-property: inhibition

INSERT INTO assay_data (compound, tested_system, result) VALUES
  ('CCc1cccc(NS(=O)(=O)c2ccccc2[N+](=O)[O-])c1', 'Huntingtin (Homo sapiens) (UniProt P42858)', '10.6% (inactive)'),
  ('COc1cccc(CN2COc3ccc4c(c3C2)OC(=Cc2ccc(OC)c(OC)c2OC)C4=O)c1', 'Huntingtin (Homo sapiens) (UniProt P42858)', '35.7% (inactive)'),
  ('CN(CC(=O)N1N=C(c2cccs2)CC1c1ccccc1F)C(=O)C1CCCC1 (stereo unspecified)', 'Huntingtin (Homo sapiens) (UniProt P42858)', '23% (inactive)'),
  ('O=C(c1cccc(Cl)c1)N1CCN(Cc2ccccc2)CC1', 'Huntingtin (Homo sapiens) (UniProt P42858)', '4.6% (inactive)'),
  ('O=C(CN1N=C(c2ccccc2)CCC1=O)NCCc1ccc(Cl)cc1', 'Huntingtin (Homo sapiens) (UniProt P42858)', '29% (inactive)'),
  ('CC(C)Oc1ccc(C(=O)N2CCN(Cc3nc(-c4ccco4)cs3)CC2)cc1', 'Huntingtin (Homo sapiens) (UniProt P42858)', '9.1% (inactive)'),
  ('CC(C)(C)c1ccc(C(=O)Nc2nc3ccc(S(C)(=O)=O)cc3s2)cc1', 'Huntingtin (Homo sapiens) (UniProt P42858)', '-2% (inactive)'),
  ('CCCNC(=O)C1CCN(c2nc3ccsc3c(=O)n2Cc2ccccc2)CC1', 'Huntingtin (Homo sapiens) (UniProt P42858)', '-1.4% (inactive)'),
  ('COc1cccc(C2CC(c3cc(Br)ccc3F)n3nnnc3N2)c1 (stereo unspecified)', 'Huntingtin (Homo sapiens) (UniProt P42858)', '4.06% (inactive)'),
  ('O=C(Nc1ccccc1)N1CCN(Cc2ccccc2)CC1', 'Huntingtin (Homo sapiens) (UniProt P42858)', '-7.6% (inactive)'),
  ('Cc1cc(C)c(C(=O)Nc2nc3ccc(S(C)(=O)=O)cc3s2)c(C)c1', 'Huntingtin (Homo sapiens) (UniProt P42858)', '-1.4% (inactive)');
